src = patent US8828987B2

Test: Pharmacokinetics in male Han Wistar rats, intravenous and oral
Assay type: in vivo
Conditions: male, Han Wistar, plasma; rat, PO, 2.0 mg/kg
Protocol: Determination of PK of the Invention Compounds The pharmacokinetics of compounds E10, E16, E34, E38, E51, were studied in male Han Wistar rats. The rats were treated intravenously and orally (n=3 for each dose route) with a compounds formulated as solutions. The rats were fitted with a jugular cannula for serial sampling. A full profile was acquired for each rat. Plasma extracts were quantitatively analyzed using a specific and sensitive LC-MS/MS bioanalytical method. […]
Listing of recorded AUC(0-t) by entry.
State the value with its unit after it.

Enquiry: Return reported AUC(0-t); argument: O=C(O)c1ccc(C2(NC(=O)c3cc(Cl)cnc3N3CC(Oc4cccc(F)c4)C3)CC2)cc1 [E 16]
Return: 2990 ng·h/mL

Enquiry: Return reported AUC(0-t); argument: O=C(O)c1ccc(C2(NC(=O)c3cc(Cl)cnc3N3CC(Oc4ccccc4)C3)CC2)cc1 [E 10]
Return: 1720 ng·h/mL

====

Molecular target: human EP4 receptor (Homo sapiens)
Construct: expressed in transfected cells; membrane fraction used
Sequence (P35408 whole entry): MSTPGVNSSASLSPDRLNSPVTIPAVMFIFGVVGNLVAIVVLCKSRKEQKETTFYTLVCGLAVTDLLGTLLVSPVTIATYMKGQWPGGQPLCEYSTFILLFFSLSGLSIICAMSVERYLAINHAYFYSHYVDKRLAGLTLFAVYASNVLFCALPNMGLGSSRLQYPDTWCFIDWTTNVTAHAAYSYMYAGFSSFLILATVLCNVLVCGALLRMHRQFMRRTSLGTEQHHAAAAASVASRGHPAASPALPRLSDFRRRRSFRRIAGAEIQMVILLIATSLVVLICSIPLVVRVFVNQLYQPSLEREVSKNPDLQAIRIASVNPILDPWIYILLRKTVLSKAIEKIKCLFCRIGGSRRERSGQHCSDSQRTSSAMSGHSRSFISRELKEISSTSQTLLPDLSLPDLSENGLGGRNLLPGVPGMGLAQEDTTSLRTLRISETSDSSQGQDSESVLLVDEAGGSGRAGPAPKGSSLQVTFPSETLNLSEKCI
Test: [3H]-Prostaglandin E2 membrane binding assay (human EP4/HEK293 transfectant membranes)
Conditions: [3H]-PGE2 1 nM, hEP4/HEK293 membranes; Ki by Cheng-Prusoff; read-out: Binding pKi (converted)
Listing of recorded Ki by entry.
Report the value in µM with no unit label.

# count of solved cases: 3
Enquiry: Return reported Ki; argument: O=C(O)c1ccc(C2(NC(=O)c3cc(Cl)cnc3N3CC(Oc4ccc(F)cc4)C3)CC2)cc1
Return: 0.0126

Enquiry: Return reported Ki; argument: O=C(O)c1ccc(C2(NC(=O)c3cc(Cl)cnc3N3CC(Oc4ccccc4)C3)CC2)cc1
Return: 0.0158

Enquiry: Return reported Ki; argument: O=C(O)c1ccc(C2(NC(=O)c3cc(Cl)cnc3N3CC(C(=O)c4cccc(F)c4)C3)CC2)cc1
Return: 0.0631

***
Enquiry: Return reported Ki; argument: O=C(O)c1ccc(C2(NC(=O)c3cc(C(F)(F)F)cnc3N3CC(Oc4ccc(F)cc4)C3)CC2)cc1
Return: 0.00794

Enquiry: Return reported Ki; argument: O=C(O)c1ccc(C2(NC(=O)c3cc(Cl)cnc3N3CCC[C@@H]3COc3cccc(F)c3)CC2)cc1
Return: 0.01

Enquiry: Return reported Ki; argument: Cc1cc(F)ccc1NC1CN(c2ncc(C(F)(F)F)cc2C(=O)NC2(c3ccc(C(=O)O)cc3)CC2)C1
Return: 0.00631

Enquiry: Return reported Ki; argument: O=C(O)c1ccc(C2(NC(=O)c3cc(F)cnc3N3CC(Oc4cccc(Cl)c4)C3)CC2)cc1
Return: 0.0251

Enquiry: Return reported Ki; argument: O=C(O)c1ccc(C2(NC(=O)c3cc(Cl)cnc3N3CC[C@H](Oc4cccc(F)c4)C3)CC2)cc1
Return: 0.0398

====

Experiment: Pharmacokinetics in male Han Wistar rats, intravenous and oral
Format: in vivo
Conditions: male, Han Wistar, plasma; rat, PO, 1.0 mg/kg
Listing of recorded Tmax by entry.

Enquiry: Return reported Tmax; argument: Cc1cc(F)ccc1NC1CN(c2ncc(Cl)cc2C(=O)NC2(c3ccc(C(=O)O)cc3)CC2)C1
Return: 15 min

Enquiry: Return reported Tmax; argument: Cc1cc(F)ccc1NC1CN(c2ncc(C(F)(F)F)cc2C(=O)NC2(c3ccc(C(=O)O)cc3)CC2)C1
Return: 15 min

Enquiry: Return reported Tmax; argument: O=C(O)c1ccc(C2(NC(=O)c3cc(C(F)(F)F)cnc3N3CC(Oc4cccc(F)c4)C3)CC2)cc1
Return: 15 min
